# study-target: Mitogen-activated protein kinase 14 (Homo sapiens)
# assay-info: Inhibition of human p38-alpha assessed as residual activity at 1 uM relative to control
measurement-label: Activity (%)
Provide the reading as a plain figure in %.

COc1ccc2c(c1)c(/C=C1\C(=O)Nc3ccc(S(=O)(=O)N(C)C)cc31)cn2C :: 97
CN(C)S(=O)(=O)c1ccc2c(c1)/C(=C/c1cn(C)c3ccc(O)cc13)C(=O)N2 :: 96
CNS(=O)(=O)c1ccc2c(c1)/C(=C/c1cn(C)c3ccc(OC)cc13)C(=O)N2 :: 99
COc1ccc2c(c1)c(/C=C1\C(=O)Nc3ccc(S(N)(=O)=O)cc31)cn2C :: 100
COc1ccc2[nH]cc(/C=C3\C(=O)Nc4ccc(S(N)(=O)=O)cc43)c2c1 :: 93

The compound `Cn1cc(/C=C2\C(=O)Nc3ccc(S(N)(=O)=O)cc32)c2ccccc21` on Mitogen-activated protein kinase 14 (Homo sapiens): Activity was 104
